# Test system: PCTK3
# Construct: gene CDK18
# experimentalParameters: concentration: 1 μM, replicates: in singlicate; n = 1;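 also: KINOMEscan kinase panel screen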
In plain terms, low %Inh, meaning strictly below 10%, gives YES, and everything else gives NO.

The examples below pair each entry with its known result.
| molecule | label |
| --- | --- |
| COc1cccc(C2=C(N(C)c3ccccc3)C(=O)NC2=O)c1 | YES |
| CN1C(=O)C(Nc2ccccc2)=C(c2ccccc2)C1=O | NO |
| CN(C)c1cc(-c2ccc3c(N)n[nH]c3c2)nc(N)n1 | YES |
| CCCC(=O)Nc1n[nH]c2ncc(-c3cccc4ccccc34)cc12 | NO |
| COC(=O)c1c(-c2ccccc2)c2cc(C)ccc2c(=O)n1Cc1ccccc1 | YES |
| COc1cc2nccc(Nc3ccc(OCc4ccc(NC(C)=O)cc4)cc3)c2cc1OC.Cl | YES |
| COc1cc(Nc2nccc(N3CCC(NC(=O)C(C)c4ccc(Cl)cc4)C3)n2)cc(OC)c1OC (stereo not drawn) | YES |
| COc1ccc(Nc2nccc(N3CCC(NS(=O)(=O)c4ccc(NC(C)=O)cc4)C3)n2)cc1 (stereo not drawn) | YES |

Q) Lab note: %Inh threshold 10%. Does this molecule come in strictly under it? `Cc1nn2c(=O)cc(N3CCOCC3)nc2n1Cc1cccc(Cl)c1Cl`
A) NO

Q) Lab note: %Inh threshold 10%. Does this molecule come in strictly under it? `CCS(=O)(=O)c1ccc(OC)c(Nc2ncc(-c3ccc(F)cc3)o2)c1.Cl`
A) NO

----------
Items are presented alongside their recorded %Inh.
# Tested on: EPHB2
# experimentalParameters: concentration: 1 μM, replicates: in singlicate; n = 1
Give just the number in %; leave the unit off.

Q) # %Inh lookup, item Cc1cccc(-c2nc(Nc3ccc4c(cnn4C)c3)c3ccccc3n2)n1 [GW876731]
A) 6

Q) # %Inh lookup, item `CCc1nc(-c2cccc(C)c2)c(-c2ccncc2)s1`
A) 2

Q) # %Inh lookup, item `COC(=O)c1c(-c2ccccc2)c2cc(Br)ccc2c(=O)n1Cc1ccc(NC(=O)CCC(=O)O)cc1`
A) 7

Q) # %Inh lookup, item `COc1cc(OC)cc(-c2cc3cnc(N)nc3nc2NC(=O)NC(C)(C)C)c1`
A) 0

Q) # %Inh lookup, item OCCCNc1nccc(-c2c(-c3cccc(C(F)(F)F)c3)nn3cc(C(F)(F)F)ccc23)n1 [GW630813]
A) 0

----------
# Tested on: MRCKB
# Construct: gene CDC42BPB
# experimentalParameters: concentration: 1 μM, replicates: in singlicate; n = 1
endpoint: %Inh (%)
Give just the number in %; leave the unit off.

| molecule | %Inh, % |
| --- | --- |
| Cc1nc(N(C)[C@H]2CN(C(=O)CC#N)CC[C@H]2C)c2cc[nH]c2n1 | 0 |

Q) # %Inh lookup, item `Cl.NS(=O)(=O)c1cccc(Nc2cc(-c3ccc(F)cc3)n[nH]2)c1`
A) 0

----------
Items are presented alongside their recorded %Inh.
# System: CSNK1G2
# experimentalParameters: concentration: 1 μM, replicates: in singlicate; n = 1
Give just the number in %; leave the unit off.

| compound | resultUnits | %Inh |
| --- | --- | --- |
| Cc1nnc(-c2ccc(C)c(-c3ccc(C(=O)O)cc3)c2)o1 | % | 0 |
| CCC(=O)c1c(-c2ccccc2)c2cc(Cl)ccc2c(=O)n1Cc1cc(C(=O)NC2CC2)n(C)n1 | % | 0 |
| CCn1c(-c2nonc2N)nc2ccccc21 | % | 0 |
| COc1ccc(-c2coc3ccc(-c4nnc(SCc5cccc(C#N)c5)o4)cc23)cc1 | % | 0 |
| Cc1ccccc1COc1cc(-n2cnc3cc(Cl)ccc32)sc1C(N)=O | % | 7 |
| COc1cccc(-n2cnc3c(N)ncnc32)c1 | % | 0 |
| Cc1cccc(-c2nc(Nc3ccc4c(cnn4C)c3)c3ccccc3n2)n1 | % | 10 |
| COc1cc(Nc2nccc(N3CCC(NC(=O)C(C)c4ccc(Cl)cc4)C3)n2)cc(OC)c1OC (stereo not drawn) | % | 0 |

Read the next record carefully.
Q) So what %Inh did `COc1cc2ncn(-c3cc(OCCCc4ccccc4)c(C(N)=O)s3)c2cc1OC` get with CSNK1G2?
A) 2
